Collected relative viability values appear next to each entry.
system: NCI-H23; experiment: relative viability (nuclei count vs DMSO), 5 days (fraction); higher = more cells survive; settings: first compound 500 µM
Answer with a number only.

Please review the following examples before continuing.
[
  {
    "COMPOUND": "O=C(O)CCCCC(CCSCc1ccccc1)SCc1ccccc1 (centres undefined) [CPI-613] + CC(=O)c1c(C)c2cnc(Nc3ccc(N4CCNCC4)cn3)nc2n(C2CCCC2)c1=O [Palbociclib] (partner 0.5 µM)",
    "STUDY_TARGET": "NCI-H23",
    "relative viability": 0.0119
  },
  {
    "COMPOUND": "O=C(O)CCCCC(CCSCc1ccccc1)SCc1ccccc1 (centres undefined) [CPI-613] + Nc1nc2[nH]cc(CCc3ccc(C(=O)N[C@@H](CCC(=O)O)C(=O)O)cc3)c2c(=O)[nH]1 [Pemetrexed] (partner 0.2 µM)",
    "STUDY_TARGET": "NCI-H23",
    "relative viability": 0.0031
  },
  {
    "COMPOUND": "O=C(O)CCCCC(CCSCc1ccccc1)SCc1ccccc1 (centres undefined) [CPI-613] + Cc1nc(NC(=O)N2CCC[C@H]2C(N)=O)sc1-c1ccnc(C(C)(C)C(F)(F)F)c1 [Alpelisib] (partner 2 µM)",
    "STUDY_TARGET": "NCI-H23",
    "relative viability": 0.0565
  }
]

Query: So what does the record say about relative viability for O=C(O)CCCCC(CCSCc1ccccc1)SCc1ccccc1 (centres undefined) [CPI-613] + Cc1cc(Nc2cc(N3CCN(C)CC3)nc(Sc3ccc(NC(=O)C4CC4)cc3)n2)n[nH]1 [Tozasertib] (partner 0.1 µM) ?
Reply: 0.0061
